Cited source for all entries: patent US8084466B2

Biological target: human histamine H4 receptor (Homo sapiens)
Construct: cell membranes
Sequence (Q9H3N8 whole entry): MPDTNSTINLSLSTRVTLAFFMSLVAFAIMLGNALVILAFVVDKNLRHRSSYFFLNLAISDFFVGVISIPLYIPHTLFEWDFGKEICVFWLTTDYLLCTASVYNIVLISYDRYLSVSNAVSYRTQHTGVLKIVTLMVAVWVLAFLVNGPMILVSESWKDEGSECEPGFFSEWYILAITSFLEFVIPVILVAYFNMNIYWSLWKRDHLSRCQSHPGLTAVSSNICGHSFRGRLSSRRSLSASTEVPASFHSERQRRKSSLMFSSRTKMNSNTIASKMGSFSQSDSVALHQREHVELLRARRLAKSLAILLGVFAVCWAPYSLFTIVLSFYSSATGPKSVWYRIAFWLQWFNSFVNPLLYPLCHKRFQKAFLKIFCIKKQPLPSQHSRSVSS
Experiment: Binding Assay on Recombinant Human Histamine H4 Receptor
Settings: competition binding with 3H-histamine (5 nM; KD 5 nM), membranes of SK-N-MC or COS7 cells expressing human H4 receptor; average of results; > = highest value tested
Listed below: log10 Ki values for each entry.
property.measured: log10 Ki (log10 of the value in nM)

INSERT INTO measurements (molecule, reading) VALUES
  ('Cc1ccc2[nH]c(-c3cccc4c3c(Cl)cn4CCCCC3CCNCC3)nc2c1C [Example 73]', 3.23),
  ('Cc1c(-c2nc3c(C)c(F)ccc3[nH]2)ccc2c1ccn2CCCC1CCN(C)CC1 [Example 7]', 1.46),
  ('Cc1cc(C)c2nc(-c3ccc4ccn(CCCCC5CCN(C)CC5)c4c3)[nH]c2c1 [Example 25]', 2.54),
  ('Cc1ccc2[nH]c(-c3cccc4c3ccn4CCCCC3CCN(C)CC3)nc2c1C [Example 78]', 2.19),
  ('CN1CCC(CCCCn2ccc3c(-c4nc5cc(C(F)(F)F)ccc5[nH]4)cccc32)CC1 [Example 18]', 1.93),
  ('c1cc(-c2nc3cc4c(cc3[nH]2)OCO4)c2ccn(CCCCC3CCNCC3)c2c1 [Example 76]', 3.29),
  ('Cc1[nH]c(-c2ccc3c(ccn3CCCN3CCN(C)CC3)c2)nc1-c1ccc(Cl)cc1 [Example 80]', 3.30),
  ('Cc1c(F)ccc2[nH]c(-c3ccc4c(c3)ncn4CCCCC3CCN(C)CC3)nc12 [Example 44]', 3.48),
  ('Cc1cc(F)cc2[nH]c(-c3ccc4c(ncn4CCCC4CCN(C)CC4)c3C)nc12 [Example 55]', 0.60),
  ('CN1CCC(CCCn2ccc3cc(-c4nc5cc(C(C)(C)C)ccc5[nH]4)cnc32)CC1 [Example 92]', 2.55),
  ('Cc1cccc2[nH]c(-c3cccc4c3ccn4CCCCC3CCNCC3)nc12 [Example 66]', 3.07),
  ('Cc1c(F)ccc2[nH]c(-c3ccc4c(ccn4CCCN4CCNCC4)c3)nc12 [Example 33]', 3.11),
  ('Cc1nc2ccc3nc(-c4cccc5c4c(Cl)cn5CCCCC4CCN(C)CC4)[nH]c3c2s1 [Example 136]', 2.97),
  ('Cc1c(F)ccc2[nH]c(-c3ccc4ccn(CCCCC5CCN(C)CC5)c4c3)nc12 [Example 26]', 2.94),
  ('O=C(c1ccccc1)c1ccc2[nH]c(-c3cccc4c3c(Cl)cn4CCCCC3CCNCC3)nc2c1 [Example 129]', 3.30),
  ('Cc1cc(Cl)cc2[nH]c(-c3ccc4ccn(CCCCC5CCNCC5)c4c3)nc12 [Example 108]', 3.30);
